assay: Influencing factor stability study on crystal forms (light, high temperature, high humidity, 30 days); format: physicochemical; details: Light exposure (4500 Lux), 7 days
measured.quantity: Color and state

{"compound": "C=CC(=O)N1CCN2C(=O)c3cc(F)c(-c4ccc(F)c5sc(N)c(C#N)c45)c4c(Cl)nn(c34)CC[C@H]2C1 [crystal form H]", "experimental.value": "Off-white solid"}
{"compound": "C=CC(=O)N1CCN2C(=O)c3cc(F)c(-c4ccc(F)c5sc(N)c(C#N)c45)c4c(Cl)nn(c34)CC[C@H]2C1 [crystal form M]", "experimental.value": "Off-white solid"}
{"compound": "C=CC(=O)N1CCN2C(=O)c3cc(F)c(-c4ccc(F)c5sc(N)c(C#N)c45)c4c(Cl)nn(c34)CC[C@H]2C1 [crystal form L]", "experimental.value": "Off-white solid"}
{"compound": "C=CC(=O)N1CCN2C(=O)c3cc(F)c(-c4ccc(F)c5sc(N)c(C#N)c45)c4c(Cl)nn(c34)CC[C@H]2C1 [crystal form G]", "experimental.value": "Off-white solid"}
